targetEntity: T1, sIL-6R (soluble IL-6 receptor; SBH Sciences) (human, UniProt P08887 20-365)
T1 construct: also called human IL-6R
T1 sequence: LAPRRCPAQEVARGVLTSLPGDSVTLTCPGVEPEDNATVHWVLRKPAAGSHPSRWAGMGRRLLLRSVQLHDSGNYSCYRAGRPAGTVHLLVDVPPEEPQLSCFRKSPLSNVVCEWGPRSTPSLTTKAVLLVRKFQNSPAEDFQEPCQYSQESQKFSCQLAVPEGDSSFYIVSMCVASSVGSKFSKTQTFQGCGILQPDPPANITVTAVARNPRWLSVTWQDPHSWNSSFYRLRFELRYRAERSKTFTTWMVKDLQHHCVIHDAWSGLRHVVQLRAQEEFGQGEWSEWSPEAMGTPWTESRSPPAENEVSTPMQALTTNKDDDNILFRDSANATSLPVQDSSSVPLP
experimentalDetails: SPR (BIAcore 3000), antibody on chip, sIL-6R analyte, 25 C
The entries below come with measured kon values attached.

binder	kon
12# (antibody, human IgG1, kappa, V domains shown, also called Sample # 12) VH: QVQLQESGPGLVRPSQTLSLTCTVSGYSITSDHAWSWVRQPPGRGLEWIGFISYSGITTYNPSLKSRVTMLRDTSKNQFSLRLSSVTAADTAVYYCARCLARATAMDYWGQGSLVTVSS VL: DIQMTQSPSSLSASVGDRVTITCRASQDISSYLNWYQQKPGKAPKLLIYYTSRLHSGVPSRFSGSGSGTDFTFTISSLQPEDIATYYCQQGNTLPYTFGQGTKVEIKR	302000 M⁻¹ s⁻¹
3# (antibody, human IgG1, kappa, V domains shown, also called Sample # 3) VH: QVQLQESGPGLVRPSQTLSLTCTVSGYSITSDHAWSWVRQPPGRGLEWIGYISYSGITTYNPSLKSRVTMLRDTSKNQFSLRLSSVTAADTAVYYCARSLARATAMDYWGQGSLVTVSS VL: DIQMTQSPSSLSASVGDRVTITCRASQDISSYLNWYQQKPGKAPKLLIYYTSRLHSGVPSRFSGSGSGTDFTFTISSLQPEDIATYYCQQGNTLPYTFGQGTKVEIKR	204000 M⁻¹ s⁻¹
17# (antibody, human IgG1, kappa, V domains shown, also called Sample # 17) VH: QVQLQESGPGLVRPSQTLSLTCTVSGYSITSDHAWSWVRQPPGRGLEWIGFISYSGITTYNPSLKSRVTMLRDTSKNQFSLRLSSVTAADTAVYYCARCLARTTAMDYWGQGSLVTVSS VL: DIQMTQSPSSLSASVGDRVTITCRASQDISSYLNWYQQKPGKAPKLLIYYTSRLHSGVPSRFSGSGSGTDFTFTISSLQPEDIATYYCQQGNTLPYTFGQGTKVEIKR	331000 M⁻¹ s⁻¹
11# (antibody, human IgG1, kappa, V domains shown, also called Sample # 11) VH: QVQLQESGPGLVRPSQTLSLTCTVSGYSITSDHAWSWVRQPPGRGLEWIGFISYSGITTYNPSLKSRVTMLRDTSKNQFSLRLSSVTAADTAVYYCARSLARATAMDYWGQGSLVTVSS VL: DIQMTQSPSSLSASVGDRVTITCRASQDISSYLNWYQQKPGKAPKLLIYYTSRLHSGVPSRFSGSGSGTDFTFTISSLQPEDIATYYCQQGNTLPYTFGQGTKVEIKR	276000 M⁻¹ s⁻¹
28# (antibody, human IgG1, kappa, V domains shown, also called Sample # 28) VH: QVQLQESGPGLVRPSQTLSLTCTVSGYSITSDHAWSWVRQPPGRGLEWIGFISYSGMTTYNPSLKSRVTMLRDTSKNQFSLRLSSVTAADTAVYYCARSLARTTAMDYWGQGSLVTVSS VL: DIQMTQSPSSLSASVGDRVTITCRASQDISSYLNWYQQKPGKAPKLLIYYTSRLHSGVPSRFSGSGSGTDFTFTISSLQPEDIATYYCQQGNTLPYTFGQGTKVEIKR	363000 M⁻¹ s⁻¹
